Assay: Assay C: Metabolic stability in human liver microsomes (Human MST)
Format: in vitro ADME
Conditions: pooled human liver microsomes, pH 7.6; human liver microsomes 1 mg/mL, compound 1 μM, 37° C., NADPH; read-out: Human MST t1/2
VALUE_TYPE: half-life at 1 μM (min)
Number only, in min; omit the unit.

q: Return value of half-life at 1 μM for input CCN(C(=O)c1ccc(F)cc1-n1nccn1)[C@@H](C)COc1ccc(Cl)cn1 , no commentary.
a: 39

q: Quote half-life at 1 μM reported for CCN(C(=O)c1c(F)cccc1-n1nccn1)[C@@H](C)COc1ccc(C(F)(F)F)cn1 please.
a: 31

q: Respond only with half-life at 1 μM recorded for CC[C@@H](CNc1ccc(C(F)(F)F)cn1)N(C)C(=O)c1cc(Cl)ccc1-n1nccn1 [Ex 42 in WO2016/034882, reference compound]
a: 7

q: Read the entry CCN(C(=O)c1ccccc1-c1nnc(C)o1)[C@@H](C)COc1ncc(C(F)(F)F)cc1F and write its reported half-life at 1 μM.
a: 53

q: Give a short answer stating reported half-life at 1 μM for CCN(C(=O)c1ccccc1-c1cnnc(C)c1)[C@@H](C)COc1ccc(C(F)(F)F)cn1 .
a: 11

q: Determine from records and report half-life at 1 μM for CCN(C(=O)c1cc(F)c(F)cc1-n1nccn1)[C@@H](C)COc1ccc(C(F)(F)F)cn1
a: 61

q: Entry CCN(C(=O)c1ccc(F)cc1-c1ncccn1)[C@@H](C)COc1ccc(Br)cn1 needs its half-life at 1 μM filled in; supply it.
a: 30

q: Note down half-life at 1 μM recorded for CCN(C(=O)c1cc(F)c(F)cc1-n1nccn1)[C@@H](C)COc1ccc(Cl)cn1
a: 52

q: Note half-life at 1 μM for the compound shown: CCN(C(=O)c1ccc(C)cc1-c1nnc(C)o1)[C@@H](C)COc1ccc(Cl)cn1
a: 11

q: For CCN(C(=O)c1cccc(F)c1-c1ncccn1)[C@@H](C)COc1ccc(C(F)(F)F)cn1 , write its half-life at 1 μM.
a: 100

q: Give the value of half-life at 1 μM reported for the following: CCN(C(=O)c1cc(F)ccc1-n1cccn1)[C@@H](C)COc1ncc(C(F)(F)F)cc1F
a: 10

q: For CCN(C(=O)c1cc(OC)ccc1-n1nccn1)[C@@H](C)COc1ccc(Cl)cn1 , write its half-life at 1 μM.
a: 20

q: Give the value of half-life at 1 μM reported for the following: CCN(C(=O)c1ccccc1-c1ccn(C)c(=O)c1)[C@@H](C)COc1ccc(C(F)(F)F)cn1
a: 39

q: Give half-life at 1 μM for CCN(C(=O)c1ccccc1-c1noc(C)n1)[C@@H](C)COc1ccc(C(F)(F)F)cn1
a: 23

q: Provide one value: measured half-life at 1 μM of CCN(C(=O)c1ccc(F)c(F)c1-n1nccn1)[C@@H](C)COc1ncc(C(F)(F)F)cc1F
a: 46

---

Target: human Orexin 1 receptor (Homo sapiens, UniProt O43613)
Construct: stably expressing the full-length human Orexin 1 receptor; expressed in transfected cells; host or cells: CHO-K1 (CHO-K1/hOX1), co-expressing aequorin
Sequence (O43613 1-425): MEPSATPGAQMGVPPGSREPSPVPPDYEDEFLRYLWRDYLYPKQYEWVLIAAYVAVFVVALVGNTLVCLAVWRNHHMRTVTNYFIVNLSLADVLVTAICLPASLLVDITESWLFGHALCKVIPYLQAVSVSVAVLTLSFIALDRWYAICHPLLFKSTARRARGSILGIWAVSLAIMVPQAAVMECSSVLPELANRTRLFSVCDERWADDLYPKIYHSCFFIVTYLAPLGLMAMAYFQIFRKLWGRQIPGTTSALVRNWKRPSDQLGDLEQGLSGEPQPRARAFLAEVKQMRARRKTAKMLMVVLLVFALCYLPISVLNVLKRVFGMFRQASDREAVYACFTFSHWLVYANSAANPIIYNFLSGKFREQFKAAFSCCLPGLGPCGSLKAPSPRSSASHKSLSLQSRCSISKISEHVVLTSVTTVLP
Assay: Assay A: In vitro testing of OX1R potency: OX1R IP1 (HTRF, CHO-K1/hOX1 cells, Orexin A as agonist)
Assay type: cell-based
Conditions: Orexin A 50 nM; read-out: OX1R Kb (Orexin A concentration used)
VALUE_TYPE: Kb (nM)
Unit nM implied. Number only.

q: Let me know recorded Kb for CCN(C(=O)c1cc(F)c(F)cc1-n1nccn1)[C@@H](C)COc1ccc(C(F)(F)F)cn1 [Example 4] , thanks.
a: 0.74

q: Give the value of Kb reported for the following: CCN(C(=O)c1cccc(F)c1-n1nccn1)[C@@H](C)COc1ccc(C(F)(F)F)cn1 [Example 109]
a: 0.11

q: State, in one line, measured Kb of CCN(C(=O)c1cc(OC)ccc1-n1nccn1)[C@@H](C)COc1ccc(Cl)cn1 [Example 33]
a: 0.14

q: Please report Kb for the following compound: CCN(C(=O)c1cccc(F)c1-n1nccn1)[C@@H](C)COc1ccc(Br)cn1 [Example 111]
a: 0.23

q: Name the recorded Kb of the compound listed here: CCN(C(=O)c1ccc(OC)cc1-c1ncccn1)[C@@H](C)COc1ccc(C(F)(F)F)cn1 [Example 118]
a: 0.032

q: Give me measured Kb, please, for this compound: CCN(C(=O)c1ccccc1-c1cnc(OC)nc1)[C@@H](C)COc1ccc(C(F)(F)F)cn1 [Example 79]
a: 1.6

q: Give reported Kb value for CCN(C(=O)c1ccc(Cl)cc1-n1nccn1)[C@@H](C)COc1ccc(C(F)(F)F)cn1 [Example 26]
a: 0.055

q: Using known records, supply Kb for CCN(C(=O)c1ccc(F)cc1-c1ncccn1)[C@@H](C)COc1ccc(C(F)(F)F)cn1 [Example 108]
a: 0.11

---

Target: human Orexin 1 receptor (Homo sapiens)
Construct: stably expressing the full-length human Orexin 1 receptor; expressed in transfected cells; host or cells: CHO-K1 (CHO-K1/hOX1), co-expressing aequorin
Experiment: Assay A: In vitro testing of OX1R potency: OX1R IP1 (HTRF, CHO-K1/hOX1 cells, Orexin A as agonist)
Format: cell-based
Conditions: Orexin A 0.5 nM; read-out: OX1R Kb (Orexin A concentration used)
Everything with Kb lower than 1 nM is -1; everything else, including exactly 1 nM, is 1.

q: Does the compound CCN(C(=O)c1c(F)cccc1-n1nccn1)[C@@H](C)COc1ncc(C(F)(F)F)cc1F have recorded Kb that is 1 nM or more?
a: 1

q: State whether the measured Kb reaches 1 nM, counting equality as reaching it, for CCN(C(=O)c1ccc(C)cc1-c1ncccn1)[C@@H](C)COc1ccc(C(F)(F)F)cn1
a: -1

q: I'd appreciate it if you could say whether CCN(C(=O)c1cc(F)cc(F)c1-n1nccn1)[C@@H](C)COc1ccc(OC(F)(F)F)cn1 has Kb at least equal to 1 nM.
a: -1

q: Does the reported Kb for CCN(C(=O)c1ccccc1-n1nccn1)[C@@H](C)COc1ncc(C(F)(F)F)cc1F fall at or above the 1 nM mark?
a: -1

q: Answer whether Kb of CCN(C(=O)c1ccc(OC)cc1-n1nccn1)[C@@H](C)COc1ncc(C(F)(F)F)cc1F is greater than or equal to 1 nM.
a: -1

q: Could you tell me if the measured Kb of CCN(C(=O)c1ccc(C#N)cc1-n1nccn1)[C@@H](C)COc1ncc(C(F)(F)F)cc1F reaches 1 nM or more?
a: 1

q: // inclusive: Kb at least 1 nM? input: CCN(C(=O)c1ccccc1-c1nnc(C)o1)[C@@H](C)COc1ccc(C(F)(F)F)cn1
a: -1

q: Quick check: does CCN(C(=O)c1cccc(F)c1-n1nccn1)[C@@H](C)COc1ccc(Cl)cn1 have Kb greater than or equal to 1 nM?
a: -1

q: Hi team, for CCN(C(=O)c1ccc(F)cc1-n1nccn1)[C@@H](C)COc1ccc(C(F)(F)F)cn1 , is the recorded Kb at or above 1 nM?
a: -1

q: Is Kb at least 1 nM? Consider CCN(C(=O)c1ccccc1-c1cnn(C)c1)[C@@H](C)COc1ncc(C(F)(F)F)cc1F
a: 1

q: Would you say CCN(C(=O)c1ccc(F)cc1-c1nnc(C)o1)[C@@H](C)COc1ncc(C(F)(F)F)cc1F shows Kb at minimum 1 nM?
a: 1

q: Hi, just wondering whether CCN(C(=O)c1ccc(C)cc1-c1nnc(C)o1)[C@@H](C)COc1ccc(OC(F)(F)F)cn1 shows Kb of 1 nM or higher.
a: 1

q: # check: Kb of CCN(C(=O)c1cc(F)cc(F)c1-n1nccn1)[C@@H](C)COc1ccc(Cl)cn1 is greater than or equal to 1 nM
a: 1

q: Does Kb meet or surpass 1 nM for CCN(C(=O)c1ccc(C)cc1-c1nnc(C)o1)[C@@H](C)COc1ccc(Cl)cn1 ?
a: 1

q: Can CCN(C(=O)c1ccccc1-c1cncc(C#N)c1)[C@@H](C)COc1ccc(C(F)(F)F)cn1 be said to have Kb at or above 1 nM?
a: 1
